tgt: mouse RORγ (Mus musculus, UniProt P51450)
Construct: from Ile251 to Lys516 for mouse RORγ; expressed in transfected cells; host or cells: CHO cells (transient co-transfection with pG5-Luc)
Sequence (P51450 251-516): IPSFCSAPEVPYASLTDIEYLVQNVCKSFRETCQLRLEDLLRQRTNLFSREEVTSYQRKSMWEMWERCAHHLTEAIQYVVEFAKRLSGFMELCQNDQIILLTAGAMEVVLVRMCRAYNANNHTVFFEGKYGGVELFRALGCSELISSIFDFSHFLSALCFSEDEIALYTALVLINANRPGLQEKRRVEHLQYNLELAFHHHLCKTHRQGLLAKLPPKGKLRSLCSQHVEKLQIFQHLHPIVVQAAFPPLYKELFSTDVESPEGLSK
procedure_details: In-vitro reporter gene assay for inhibitory activity against RORγ transcription, Test Method A (GAL4-mRORγ LBD / pG5-Luc in CHO cells)
Format: cell-based
test_conditions: luciferase reporter, 2 days
Protocol: In-Vitro Assay for Inhibitory Activity Against RORγ Transcription Inhibitory activity against RORγ transcription was assessed for test compounds by either of the following Test Method A or B of reporter gene assay. […] RORγ transcriptional activity was detected as the intracellular luciferase activity using SteadyLite HTS Reporter Gene Assay System (Perkin Elmer). […] After the incubation at room temperature for 10 minutes, luminescence of each well was measured with a microplate reader. […]
measurement_label: EC50 (µM)

Study these solved cases before continuing.
compound	EC50 / µM
COCC1OC[C@@]2(c3ccc(CCC(C)(C)C)c(Cl)c3)NC(=O)N(CCC(=O)O)C=C12 (single isomer, unassigned) [Example 20]	0.025
COCC1CCCC2(c3ccc(CCC(C)(C)C)c(Cl)c3)NC(=O)N(CCC(=O)O)C=C12 (racemic) [Example 56]	0.029
CC(C)(C)CCc1ccc(C23CCC(CCOCc4ccccc4)C2=CN(CCC(=O)O)C(=O)N3)cc1Cl (single isomer, unassigned) [Example 26]	0.243

(A) CC(C)(C)CCc1ccc([C@@]23COC(COCc4ccccc4)C2=CN(CCC(=O)O)C(=O)N3)cc1Cl (single isomer, unassigned) [Example 16]
(B) CC(C)(C)CCc1ccc([C@@]23CCCCC2=CN(CCC(=O)O)C(=O)N3)cc1Cl (single isomer, unassigned) [Example 41]
Query :: Hi there! Just curious which has the higher EC50 between A and B . Which one? Tell me its label.
Result :: A
(A: 0.774 µM, B: 0.013 µM)

----------
tgt: human RORγ (Homo sapiens, UniProt P51449)
Construct: from Ser253 to Lys518 for human RORγ; expressed in transfected cells; host or cells: CHO cells (transient co-transfection with pG5-Luc)
Sequence (P51449 253-518): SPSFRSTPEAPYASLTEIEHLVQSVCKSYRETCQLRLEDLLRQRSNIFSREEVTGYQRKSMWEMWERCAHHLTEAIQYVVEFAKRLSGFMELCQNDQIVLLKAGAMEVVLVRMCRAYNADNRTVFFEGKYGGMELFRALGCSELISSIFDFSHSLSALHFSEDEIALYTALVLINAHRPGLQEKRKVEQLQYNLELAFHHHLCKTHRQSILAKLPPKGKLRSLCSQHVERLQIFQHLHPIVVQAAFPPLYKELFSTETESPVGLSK
procedure_details: In-vitro reporter gene assay for inhibitory activity against RORγ transcription, Test Method A (GAL4-hRORγ LBD / pG5-Luc in CHO cells)
Assay type: cell-based
test_conditions: luciferase reporter, 2 days
measurement_label: EC50 (µM)

These solved cases illustrate the format of a correct answer.
molecule	observed_result
CC(C)(C)COc1ccc(C23CCCC2=NNC(=O)N3)cc1Cl (racemic)	1.69
CC(C)(C)CCc1ccc(C23CC(C)(C)CC2=CN(CCC(=O)O)C(=O)N3)cc1Cl (single isomer, unassigned) [Example 32]	0.021
COCC1OC[C@@]2(c3ccc(CCC(C)(C)C)c(Cl)c3)NC(=O)N(CCC(=O)O)C=C12 (single isomer, unassigned)	0.025
COCC1OC[C@]2(c3ccc(CCC(C)(C)C)c(Cl)c3)NC(=O)N(CCC(=O)O)C=C12 (single isomer, unassigned)	17.1
CC(C)(C)CCc1ccc(C23CCC(C)(C)C2=CN(CCC(=O)O)C(=O)N3)cc1Cl (single isomer, unassigned) [Example 4]	1.02

(1) CC(C)(C)CCc1ccc(C23CCCC(CO)C2=CN(CCC(=O)O)C(=O)N3)cc1Cl (racemic)
(2) COCC1CCCC2(c3ccc(CCC(C)(C)C)c(Cl)c3)NC(=O)N(CCC(=O)O)C=C12 (racemic)
Query :: Short answer wanted: higher EC50, 1 or 2 ? Selection: enter the item's label.
Result :: 1
(1: 0.093 µM, 2: 0.02 µM)

----------
tgt: human RORγ (Homo sapiens, UniProt P51449)
Construct: from Ser253 to Lys518 for human RORγ; expressed in transfected cells; host or cells: CHO cells (transient co-transfection with pG5-Luc)
procedure_details: In-vitro reporter gene assay for inhibitory activity against RORγ transcription, Test Method A (GAL4-hRORγ LBD / pG5-Luc in CHO cells)
Assay type: cell-based
test_conditions: luciferase reporter, 2 days
measurement_label: EC50 (µM)

Some solved entries appear below for comparison.
molecule	measurement_label	observed_result
CC(C)(C)CCc1ccc(C23CCC(CCO)C2=CN(CCC(=O)O)C(=O)N3)cc1Cl (single isomer, unassigned)	EC50	0.092
COC1CC[C@@]2(c3ccc(CCC(C)(C)C)c(Cl)c3)NC(=O)N(CCC(=O)O)C=C2C1 (single isomer, unassigned)	EC50	0.015
CC(C)CCOc1ccc(C23CCCCC2=CN(CCC(=O)O)C(=O)N3)cc1Cl (racemic)	EC50	0.279
C[C@@H]1CC2=CN(CCC(=O)O)C(=O)NC2(c2ccc(CCC(C)(C)C)c(Cl)c2)CO1 (single isomer, unassigned)	EC50	0.01

(P) CC(C)(C)CCc1ccc(C23CCCC(CCOCc4ccccc4)C2=CN(CCC(=O)O)C(=O)N3)cc1Cl (racemic)
(Q) CC(C)(C)CCOc1ccc(C23CCCCC2=CN(CCC(=O)O)C(=O)N3)cc1Cl (racemic)
Query :: Two entries are listed, P and Q . Which one carries the higher EC50? Indicate your choice by writing its label.
Result :: Q

----------
tgt: human RORγ (Homo sapiens)
Construct: from Ser253 to Lys518 for human RORγ; expressed in transfected cells; host or cells: CHO cells (transient co-transfection with pG5-Luc)
procedure_details: In-vitro reporter gene assay for inhibitory activity against RORγ transcription, Test Method B (pFA/hRORγ LBD / pG5-Luc in CHO cells)
Assay type: cell-based
test_conditions: luciferase reporter, CHO cells, 2 days
measurement_label: EC50 (µM)

compound	output_unit	EC50
CC1CC[C@@]2(c3ccc(CCC(C)(C)C)c(Cl)c3)NC(=O)N(C34CCC(C(=O)O)(C3)C4)C=C2C1 (single isomer, unassigned)	µM	0.035

(I) CC1C2=CN(C34CCC(C(=O)O)(C3)C4)C(=O)N[C@]2(c2ccc(CCC(C)(C)C)c(Cl)c2)COC1(C)C (single isomer, unassigned) [Example 120]
(II) CC(C)(C)CCc1ccc(C23CCC(C#N)CC2=CN(C24CC(C(=O)O)(C2)C4)C(=O)N3)cc1Cl (single isomer, unassigned)
(III) CC(C)(C)CCc1ccc([C@@]23CCC(F)(F)CC2=CN(C24CC(C(=O)O)(C2)C4)C(=O)N3)cc1Cl (single isomer, unassigned)
(IV) CCC1CC[C@]2(c3ccc(CCC(C)(C)C)c(Cl)c3)NC(=O)N(C34CC(C(=O)O)(C3)C4)C=C2C1 (single isomer, unassigned)
Query :: Thanks in advance: please rank these 4 entries by EC50, highest to lowest. Record the ranking as a list of labels in the requested order.
Result :: IV, II, III, I
(IV: 3.97 µM, II: 0.11 µM, III: 0.038 µM, I: 0.013 µM)

----------
tgt: human RORγ (Homo sapiens)
Construct: from Ser253 to Lys518 for human RORγ; expressed in transfected cells; host or cells: CHO cells (transient co-transfection with pG5-Luc)
Sequence (P51449 253-518): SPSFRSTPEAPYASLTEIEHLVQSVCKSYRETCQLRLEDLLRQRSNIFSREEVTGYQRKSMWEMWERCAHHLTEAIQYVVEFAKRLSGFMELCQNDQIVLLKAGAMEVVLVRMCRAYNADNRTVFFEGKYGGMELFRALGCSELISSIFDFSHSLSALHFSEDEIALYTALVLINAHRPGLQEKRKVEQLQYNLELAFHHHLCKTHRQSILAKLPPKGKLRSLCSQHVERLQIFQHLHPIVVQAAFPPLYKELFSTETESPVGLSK
procedure_details: In-vitro reporter gene assay for inhibitory activity against RORγ transcription, Test Method A (GAL4-hRORγ LBD / pG5-Luc in CHO cells)
Assay type: cell-based
test_conditions: luciferase reporter, 2 days
measurement_label: EC50 (µM)

compound	measurement_label	observed_result
CC(C)(C)CCc1ccc(C23CCC(C)(C)CC2=CN(CCC(=O)O)C(=O)N3)cc1Cl (racemic)	EC50	0.016

(P) CC(C)(C)CCc1ccc([C@]23CCCC(C)(C)C2=CN(CCC(=O)O)C(=O)N3)cc1Cl (single isomer, unassigned)
(Q) CC(C)(C)CCc1ccc([C@@]23COC(COCc4ccccc4)C2=CN(CCC(=O)O)C(=O)N3)cc1Cl (single isomer, unassigned)
(R) CC(C)(C)CCc1ccc(C23COC(C)(C)C2=CN(c2ccc(C(=O)O)cc2)C(=O)N3)cc1Cl (single isomer, unassigned) [Example 8]
Query :: Hi! Can you put these in order of EC50, lowest number first? The response must list the labels following the requested ordering.
Result :: R, Q, P
(R: 0.427 µM, Q: 0.755 µM, P: 3.87 µM)

(P) C[C@H]1CC2=CN(CCC(=O)O)C(=O)NC2(c2ccc(CCC(C)(C)C)c(Cl)c2)CO1 (single isomer, unassigned)
(Q) CC(C)(C)COc1ccc(C23CCCCC2=CN(CCC(=O)O)C(=O)N3)cc1Cl (racemic)
(R) CC(C)(C)CCc1ccc(C23CCCC(CCOS(C)(=O)=O)C2=CN(CCC(=O)O)C(=O)N3)cc1Cl (racemic)
(S) CC(C)(C)CCc1ccc(C23CCC(CC#N)C2=CN(CCC(=O)O)C(=O)N3)cc1Cl (racemic)
Query :: List items by EC50 in falling order. Please list each label once, in the requested order.
Result :: R, P, Q, S
(R: 1.99 µM, P: 0.541 µM, Q: 0.118 µM, S: 0.048 µM)

Origin of values: patent US20220119355A1
